The entries below come with measured MIC values attached.
- Test system: Serratia marcescens
- measurement_notes: In vitro antimicrobial activity against Serratia marcescens GC 4077
- Type: functional

compound	qualifier_operator	MIC (µg/mL)
CC(C)C(O)[C@@H](N)C(=O)NCCCN[C@H](C(=O)OC(C)(C)C)[C@@H](O)C1O[C@@H](n2ccc(=O)[nH]c2=O)[C@H](O[Si](C)(C)C(C)(C)C)[C@@H]1O[Si](C)(C)C(C)(C)C (some centres undefined)	=	128
COc1ccc(Cn2c(=O)ccn([C@@H]3OC([C@H](O)[C@H](NCCCNC(=O)[C@H](N)CCCCNC(=O)OCc4ccccc4)C(=O)OC(C)(C)C)[C@@H](O[Si](C)(C)C(C)(C)C)[C@H]3O[Si](C)(C)C(C)(C)C)c2=O)cc1 (some centres undefined)	=	128
COc1ccc(Cn2c(=O)ccn([C@@H]3OC([C@H](O)[C@H](NCCCNC(=O)[C@H](N)C(O)C(C)C)C(=O)OC(C)(C)C)[C@@H](O[Si](C)(C)C(C)(C)C)[C@H]3O[Si](C)(C)C(C)(C)C)c2=O)cc1 (some centres undefined)	>	128
COc1ccc(Cn2c(=O)ccn([C@@H]3OC([C@H](O)[C@H](NCCCNC(=O)[C@@H](C)N)C(=O)OC(C)(C)C)[C@@H](O[Si](C)(C)C(C)(C)C)[C@H]3O[Si](C)(C)C(C)(C)C)c2=O)cc1 (some centres undefined)	=	128

All values here come from ChEMBL document CHEMBL1145867.
